Each recorded value in this set is attributed to patent US20230183243A1.

Record set of IC50 for target or system TTK (Homo sapiens, UniProt P33981).

compound | assay.result
CCCCNc1nc(Nc2ccc(N3CCCC3=O)cc2OC)nc2[nH]cc(C#N)c12 | < 50 nM
COc1cc(-c2ccn(C)n2)ccc1Nc1nc(NC2CCCC2)c2c(C#N)c[nH]c2n1 | < 50 nM
COc1cc(-c2ccnn2C)c(F)cc1Nc1nc(NC2CCCC2)c2c(C#N)c[nH]c2n1 | 200 to 1000 nM

Input line: So what IC50 did "CCOc1cc(-c2nncn2C)ccc1Nc1nc(C2CC2)c2c(C#N)c[nH]c2n1" get with TTK (Homo sapiens, UniProt P33981)?
Output line: 200 to 1000 nM

Input line: So what IC50 did "COc1cc(Nc2nc(NC3CCCC3)c3c(C#N)c[nH]c3n2)ccc1-c1c(C)noc1C" get with TTK (Homo sapiens, UniProt P33981)?
Output line: 200 to 1000 nM

Input line: So what IC50 did "COc1cc(-c2ccnn2C)ccc1Nc1nc(NCC(C)(C)C)c2c(C#N)c[nH]c2n1" get with TTK (Homo sapiens, UniProt P33981)?
Output line: < 50 nM

Input line: So what IC50 did "Cn1nccc1-c1ccc(Nc2nc(NC3CCCC3)c3c(Cl)c[nH]c3n2)c2c1OCCO2" get with TTK (Homo sapiens, UniProt P33981)?
Output line: 50 to 200 nM

Input line: So what IC50 did Cn1cc(-c2ccc(Nc3nc(NC4CCC(F)(F)C4)c4c(C#N)c[nH]c4n3)c3c2OCCO3)cn1 (centres unmarked) get with TTK (Homo sapiens, UniProt P33981)?
Output line: < 50 nM

====

# System: SHP-77
# test.description: Inhibition of proliferation of small cell lung cancer cells, CellTiter-Glo
# Assay type: cell-based
# recorded.conditions: Homo sapiens, SHP77, 120 h; SHP-77, cultured for 5 days
experimental.endpoint: GI50

Sample answers from the record:
molecule | GI50
COc1cc(-c2ccnn2C)ccc1Nc1cc(NC2CCCC2)c2c(C#N)c[nH]c2n1 | < 0.1 µM
COC[C@@H](C)Nc1nc(Nc2ccc(-c3cnn(C)c3)c3c2OCCO3)nc2[nH]cc(C#N)c12 | < 0.1 µM
COc1cc(-c2ccnn2C)ccc1Nc1nc(C2=CCCCC2)c2c(C#N)c[nH]c2n1 | 0.1 to 1 µM

Input line: Which GI50 value is on record for "COCCNc1nc(Nc2ccc(-c3ccnn3C)c3c2OCCO3)nc2[nH]cc(C#N)c12" ?
Output line: < 0.1 µM

Input line: Which GI50 value is on record for "Cn1nccc1-c1ccc(Nc2nc(C3CC3)c3c(C#N)c[nH]c3n2)c2c1OCCO2" ?
Output line: < 0.1 µM

====

# Tested on: MDA-MB-231 cells
# test.description: Inhibition of proliferation of triple-negative breast cancer cells, CellTiter-Glo
# Format: cell-based
# recorded.conditions: Homo sapiens, 120 h; MDA-MB-231, cultured for 5 days
Collected GI50 values appear next to each entry.

Sample answers from the record:
structure.as.smiles | system | GI50
Cn1nccc1-c1ccc(Nc2nc(C3=CCCCC3)c3c(C#N)c[nH]c3n2)c2c1OCCO2 | MDA-MB-231 cells | 100 to 1000 nM
COc1cc(N2CCCC2=O)ccc1Nc1nc(NCC(C)(C)C)c2c(C#N)c[nH]c2n1 | MDA-MB-231 cells | 100 to 1000 nM

Input line: Which GI50 value is on record for "CC(=O)N1CCN(Cc2ccc(-c3ccc(Nc4nc(NC5CCCCC5)c5c(C#N)c[nH]c5n4)cc3)cc2)CC1" ?
Output line: 100 to 1000 nM

Input line: Which GI50 value is on record for "COc1cc(N2CCCC2=O)ccc1Nc1nc(NCC(C)C)c2c(C#N)c[nH]c2n1" ?
Output line: < 100 nM

====

Record set of IC50 for target or system TTK (Homo sapiens, UniProt P33981).

compound | IC50
CCC(C)Nc1nc(Nc2ccc(N3CCCC3=O)cc2OC)nc2[nH]cc(C#N)c12 (stereo in doubt) [Example 68] | < 0.05 µM
COc1cc(-c2ccnn2C)ccc1Nc1nc(NC2CCCC2)c2c(C(F)(F)F)c[nH]c2n1 [Example 132] | 0.05 to 0.2 µM
Cn1cc(-c2ccc(Nc3nc(NC4CCOC(C)(C)C4)c4c(C#N)c[nH]c4n3)c3c2OCCO3)cn1 (stereo not shown) [Example 145] | < 0.05 µM

Continue with the compound presented below.
Input line: Which IC50 value is on record for COc1cc(N2CCCC2=O)ccc1Nc1nc(NCC2CCC2)c2c(C#N)c[nH]c2n1 [Example 70] ?
Output line: < 0.05 µM

====

# System: MDA-MB-231 cells
# test.description: Inhibition of proliferation of triple-negative breast cancer cells, CellTiter-Glo
# Type: cell-based
# recorded.conditions: Homo sapiens, 120 h; MDA-MB-231, cultured for 5 days
Structures can show the parent of a compound that is named as a salt.
experimental.endpoint: GI50

Sample answers from the record:
compound | system | assay.result
COc1cc(N2CCCC2=O)ccc1Nc1nc(O[C@H]2CC[C@@](C)(O)CC2)c2c(C#N)c[nH]c2n1 | MDA-MB-231 cells | < 100 nM
N#Cc1c[nH]c2nc(Nc3ccc(N4CCCS4(=O)=O)cc3)nc(NC3CCOCC3)c12 | MDA-MB-231 cells | < 100 nM
Cn1nccc1-c1ccc(Nc2nc(NCC3CCCC3)c3c(C#N)c[nH]c3n2)c2c1OCCO2 [Example 50, hydrochloride] | MDA-MB-231 cells | < 100 nM

Input line: Which GI50 value is on record for COc1cc(Nc2nc(NC3CCOC(C)(C)C3)c3c(C#N)c[nH]c3n2)ccc1-c1ccnn1C (stereo not drawn) ?
Output line: < 100 nM

Input line: Which GI50 value is on record for CC[C@H](C)Nc1nc(Nc2ccc(-c3ccnn3C)cc2OC)nc2[nH]cc(C#N)c12 [Example 1, trifluoroacetate] ?
Output line: < 100 nM

Input line: Which GI50 value is on record for Cn1cc(-c2ccc(Nc3nc(NC4CCC(F)(F)C4)c4c(C#N)c[nH]c4n3)c3c2OCCO3)cn1 (stereo not drawn) ?
Output line: < 100 nM

====

# Test system: SHP-77
# test.description: Inhibition of proliferation of small cell lung cancer cells, CellTiter-Glo
# Format: cell-based
# recorded.conditions: Homo sapiens, SHP77, 120 h; SHP-77, cultured for 5 days
experimental.endpoint: GI50

Sample answers from the record:
compound | system | GI50
CN(C)S(=O)(=O)CCNc1nc(Nc2ccc(-c3ccnn3C)c3c2OCCO3)nc2[nH]cc(C#N)c12 [Example 85] | SHP-77 | < 100 nM
Cn1nccc1-c1ccc(Nc2nc(NC3CCCC(F)(F)C3)c3c(C#N)c[nH]c3n2)c2c1OCCO2 (centres unmarked) [Example 153] | SHP-77 | < 100 nM
COc1cc(-c2cccc(O)c2)ccc1Nc1nc(NC2CCOCC2)c2c(C#N)c[nH]c2n1 [Example 141] | SHP-77 | < 100 nM
COc1cc(N2CCCS2(=O)=O)ccc1Nc1nc(NC2CCCC2)c2c(C#N)c[nH]c2n1 [Example 157] | SHP-77 | < 100 nM
COc1cc(Nc2nc(NC3CCOCC3)c3c(C#N)c[nH]c3n2)ccc1-c1ccnn1C [Example 119] | SHP-77 | < 100 nM
COc1cc(N2CCCCS2(=O)=O)ccc1Nc1nc(NC2CCOCC2)c2c(C(F)(F)F)c[nH]c2n1 [Example 175] | SHP-77 | < 100 nM
COCCNc1nc(Nc2ccc(-c3cnn(C)c3)cc2OC)nc2[nH]cc(C#N)c12 [Example 97] | SHP-77 | < 100 nM
Cn1nccc1-c1ccc(Nc2nc(NC3CCOC(C)(C)C3)c3c(C#N)c[nH]c3n2)c2c1OCCO2 (centres unmarked) [Example 109] | SHP-77 | < 100 nM

Input line: Which GI50 value is on record for COc1cc(Nc2nc(NC3CCCC3)c3c(C#N)c[nH]c3n2)ccc1-c1cnn(C)c1 [Example 136] ?
Output line: < 100 nM

Input line: Which GI50 value is on record for COCCNc1nc(Nc2ccc(-n3ccnc3C)cc2OC)nc2[nH]cc(C#N)c12 [Example 98] ?
Output line: < 100 nM

Input line: Which GI50 value is on record for Cn1nccc1-c1ccc(Nc2nc(NCCS(C)(=O)=O)c3c(C#N)c[nH]c3n2)c2c1OCCO2 [Example 84] ?
Output line: > 1000 nM

Input line: Which GI50 value is on record for COc1cc(-c2cnn(C)c2)ccc1Nc1nc(NC2CCOC(C)(C)C2)c2c(C#N)c[nH]c2n1 (centres unmarked) [Example 144] ?
Output line: < 100 nM

Input line: Which GI50 value is on record for C=CC(=O)Nc1cc(-c2ccnn2C)ccc1Nc1nc(NC2CCCC2)c2c(C#N)c[nH]c2n1 [Example 142] ?
Output line: 100 to 1000 nM

Input line: Which GI50 value is on record for Cn1nccc1-c1ccc(Nc2nc(NC3CCC(F)(F)C3)c3c(C#N)c[nH]c3n2)c2c1OCCO2 (centres unmarked) [Example 116] ?
Output line: < 100 nM

Input line: Which GI50 value is on record for Cn1cc(-c2ccc(Nc3nc(NC4CCCCCC4)c4c(C#N)c[nH]c4n3)c3c2OCCO3)cn1 [Example 150] ?
Output line: < 100 nM
